Reference source for all entries: paper PMC3521585

- Assay target: human NK1 receptor (human, UniProt P25103 1-407)
- Sequence (P25103 whole entry): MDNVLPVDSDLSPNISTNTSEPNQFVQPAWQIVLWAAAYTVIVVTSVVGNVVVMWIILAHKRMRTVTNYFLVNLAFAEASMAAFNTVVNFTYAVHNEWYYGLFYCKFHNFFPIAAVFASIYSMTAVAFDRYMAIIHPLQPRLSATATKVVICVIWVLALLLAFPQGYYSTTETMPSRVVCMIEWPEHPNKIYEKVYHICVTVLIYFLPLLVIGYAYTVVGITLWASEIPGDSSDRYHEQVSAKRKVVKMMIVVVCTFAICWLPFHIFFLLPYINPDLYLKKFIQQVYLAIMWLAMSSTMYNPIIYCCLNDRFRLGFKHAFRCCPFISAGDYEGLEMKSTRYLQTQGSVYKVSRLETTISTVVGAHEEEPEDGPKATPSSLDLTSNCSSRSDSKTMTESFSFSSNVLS
- Experiment notes: radioligand binding
Non-standard residues stand in square brackets, D forms with d. No end group written: not given here. *: point of attachment. NH(3,5-(CF3)2-benzyl) = FC(F)(F)c1cc(CN*)cc(C(F)(F)F)c1; βGlc = OC[C@H]1O[C@@H](*)[C@H](O)[C@@H](O)[C@@H]1O; Nle = CCCC[C@H](N)C(=O)O
Overview of reported pKi across a group of binders:
The quantity pKi is defined as the negative base-10 logarithm of the molar concentration.

Examples with answers:
Binder	Endpoint value
YAGFXPLW (D-Ala at 2; norleucine (Nle) at 5 (written X); C-terminal 3’,5’-bis(trifluoromethyl)benzyl amide (Trp-NH-3’,5’-Bzl(CF3)2)) [Tyr-D-Ala-Gly-Phe-Nle-Pro-Leu-Trp-NH-3’,5’-Bzl(CF3)2]	11.55
Y[dA]GFS(βGlc)PLW-{NH(3,5-(CF3)2-benzyl)} [Tyr-D-Ala-Gly-Phe-Ser(Glc)-Pro-Leu-Trp-NH-3’,5’-Bzl(CF3)2]	11.96

Let us move to another entry and its pKi.
According to the records, this binder Y[dA]GF[Nle]S(βGlc)LW-{NH(3,5-(CF3)2-benzyl)} [Tyr-D-Ala-Gly-Phe-Nle-Ser(Glc)-Leu-Trp-NH-3’,5’-Bzl(CF3)2] displays pKi of 8.74
